Reference source for all entries: paper PMC2782911

# target-desc: recombinant human HDAC3 (Homo sapiens, UniProt O15379)
# Sequence (O15379 whole entry): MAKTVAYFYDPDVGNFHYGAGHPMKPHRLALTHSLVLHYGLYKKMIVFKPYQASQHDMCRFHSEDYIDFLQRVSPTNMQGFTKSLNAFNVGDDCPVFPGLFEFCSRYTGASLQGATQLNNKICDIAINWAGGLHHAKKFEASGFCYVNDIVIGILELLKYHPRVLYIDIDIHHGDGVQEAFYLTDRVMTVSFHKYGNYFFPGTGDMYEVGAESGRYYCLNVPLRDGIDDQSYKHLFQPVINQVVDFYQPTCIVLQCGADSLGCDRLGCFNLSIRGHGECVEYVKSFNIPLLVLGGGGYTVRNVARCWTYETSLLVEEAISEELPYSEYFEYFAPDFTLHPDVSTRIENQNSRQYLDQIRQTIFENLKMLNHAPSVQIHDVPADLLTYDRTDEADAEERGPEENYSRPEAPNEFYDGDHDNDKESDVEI
# Sequence (Q9Y618 395-489 partner limits assumed): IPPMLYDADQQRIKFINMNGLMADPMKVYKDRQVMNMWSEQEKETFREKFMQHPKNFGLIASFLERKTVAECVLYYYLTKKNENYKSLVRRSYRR
# assay-procedure: Recombinant human HDAC3 activity assay
experimental-readout: pIC50
Answers are plain numbers, as −log10 of the molar value.

Prompt: Give pIC50 (recombinant human HDAC3 (Homo sapiens, UniProt O15379)) of the following molecule: CC(=O)C(=O)O [pyruvate]
Response: 4.40

---

# target-desc: human SLC5A8 (Homo sapiens, UniProt Q8N695)
# Sequence (Q8N695 whole entry): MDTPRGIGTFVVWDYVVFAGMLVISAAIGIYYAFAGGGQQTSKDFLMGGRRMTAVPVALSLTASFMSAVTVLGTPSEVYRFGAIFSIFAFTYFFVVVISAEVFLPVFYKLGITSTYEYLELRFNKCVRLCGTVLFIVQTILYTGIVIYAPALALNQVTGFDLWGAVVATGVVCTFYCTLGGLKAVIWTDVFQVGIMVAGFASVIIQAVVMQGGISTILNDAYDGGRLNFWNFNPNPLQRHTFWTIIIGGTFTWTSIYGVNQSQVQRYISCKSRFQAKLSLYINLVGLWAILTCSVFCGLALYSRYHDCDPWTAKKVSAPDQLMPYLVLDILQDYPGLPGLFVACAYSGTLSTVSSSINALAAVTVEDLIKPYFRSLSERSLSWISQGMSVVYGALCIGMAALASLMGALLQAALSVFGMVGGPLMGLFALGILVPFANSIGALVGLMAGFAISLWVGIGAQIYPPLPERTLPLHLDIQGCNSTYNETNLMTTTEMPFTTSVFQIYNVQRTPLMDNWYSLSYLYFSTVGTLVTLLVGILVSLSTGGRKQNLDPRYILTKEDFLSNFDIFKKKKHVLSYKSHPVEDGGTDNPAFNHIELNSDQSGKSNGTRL
# assay-procedure: Inhibition of [14C]nicotinate uptake via human SLC5A8 expressed in HRPE cells
# Assay type: cell-based
experimental-readout: IC50 (µM)
Numbers only, in µM.

Prompt: Looking for the measured IC50 of CC(=O)C(=O)O [pyruvate] , can you help?
Response: 652

---

# target-desc: recombinant human HDAC1 (Homo sapiens, UniProt Q13547)
# Sequence (Q13547 whole entry): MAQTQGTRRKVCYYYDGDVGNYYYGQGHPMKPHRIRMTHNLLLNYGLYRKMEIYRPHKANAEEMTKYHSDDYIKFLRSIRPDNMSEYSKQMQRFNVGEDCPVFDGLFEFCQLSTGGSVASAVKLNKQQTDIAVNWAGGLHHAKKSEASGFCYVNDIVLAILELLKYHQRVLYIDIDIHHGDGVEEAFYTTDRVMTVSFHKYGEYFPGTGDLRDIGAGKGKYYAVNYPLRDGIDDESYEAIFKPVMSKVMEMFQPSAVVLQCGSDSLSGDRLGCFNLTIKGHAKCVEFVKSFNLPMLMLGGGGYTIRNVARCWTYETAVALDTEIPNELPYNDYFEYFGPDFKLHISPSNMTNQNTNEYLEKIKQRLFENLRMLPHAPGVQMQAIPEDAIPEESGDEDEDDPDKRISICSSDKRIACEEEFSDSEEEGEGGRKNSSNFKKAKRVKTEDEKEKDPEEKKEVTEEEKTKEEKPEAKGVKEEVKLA
# assay-procedure: Recombinant human HDAC1 activity assay
experimental-readout: pIC50
One number for each entry, as −log10 of the molar value.

Prompt: Looking for the measured pIC50 of CC(=O)C(=O)O [pyruvate] , can you help?
Response: 4.52
